Values were extracted from patent US12643910B2.

Biological target: human ENPP1 (Homo sapiens, UniProt P22413)
Construct: made in house
Sequence (P22413 whole entry): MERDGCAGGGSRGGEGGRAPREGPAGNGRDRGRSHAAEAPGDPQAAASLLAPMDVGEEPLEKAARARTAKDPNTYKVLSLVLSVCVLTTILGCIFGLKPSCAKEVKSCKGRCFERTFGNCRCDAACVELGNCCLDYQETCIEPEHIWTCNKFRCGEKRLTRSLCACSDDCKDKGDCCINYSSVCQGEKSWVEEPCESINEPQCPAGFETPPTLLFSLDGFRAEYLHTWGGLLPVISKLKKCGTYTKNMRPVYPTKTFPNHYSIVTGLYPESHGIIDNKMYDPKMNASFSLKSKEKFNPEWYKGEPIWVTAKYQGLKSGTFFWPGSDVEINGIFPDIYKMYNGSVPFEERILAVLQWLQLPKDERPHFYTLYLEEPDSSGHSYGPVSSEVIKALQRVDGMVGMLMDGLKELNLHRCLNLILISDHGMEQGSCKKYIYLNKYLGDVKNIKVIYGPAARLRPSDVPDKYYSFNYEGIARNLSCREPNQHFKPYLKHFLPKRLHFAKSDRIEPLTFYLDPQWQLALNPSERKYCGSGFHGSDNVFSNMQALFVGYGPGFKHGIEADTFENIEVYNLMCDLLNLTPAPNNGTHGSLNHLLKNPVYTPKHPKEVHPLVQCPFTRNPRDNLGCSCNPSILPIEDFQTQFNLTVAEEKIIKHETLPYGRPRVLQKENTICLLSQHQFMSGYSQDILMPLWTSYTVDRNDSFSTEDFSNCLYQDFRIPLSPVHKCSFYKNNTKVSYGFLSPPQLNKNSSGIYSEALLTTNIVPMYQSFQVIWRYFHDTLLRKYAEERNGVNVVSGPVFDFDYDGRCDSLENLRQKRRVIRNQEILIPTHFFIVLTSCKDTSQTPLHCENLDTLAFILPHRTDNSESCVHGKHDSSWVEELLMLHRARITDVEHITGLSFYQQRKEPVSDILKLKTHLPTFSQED
Assay: ENPP1 assay with ATP substrate (Transcreener AMP2/GMP2 TR-FRET)
Format: biochemical
Details: 1 hour at room temperature
propertyName: IC50

{"columns": ["molecule", "observedValue"],
 "data": [
  ["O=C(CCc1ccc(F)cc1)NC1CCN(c2ncnc3c(-c4ccccc4)csc23)CC1", "> 20 µM"],
  ["CN(C)CCCNc1nc(NCc2ccc(S(N)(=O)=O)cc2)c2c(-c3ccccc3)csc2n1", "< 0.1 µM"],
  ["Cc1cccc(CCCNC2CCN(c3ncnc4c(C)csc34)CC2)c1", "0.1 to 1 µM"],
  ["CCn1ncc2c(NCc3ccc(S(N)(=O)=O)cc3)nc(OCCC(C)(C)OC)nc21", "< 0.1 µM"],
  ["NS(=O)(=O)c1ccc(CNc2nc(-c3ccccn3)nc3scc(-c4ccncc4)c23)cc1", "1 to 20 µM"],
  ["Cn1ncc2c(NCc3ccc(S(N)(=O)=O)c(C(F)(F)F)c3)ccnc21", "< 0.1 µM"],
  ["Cn1ncc2c(NCc3ccc(S(N)(=O)=O)cc3Cl)ncnc21", "0.1 to 1 µM"],
  ["CN1CCN(c2nc(NCc3ccc(S(N)(=O)=O)cc3)c3c(-c4ccccc4)csc3n2)CC1", "< 0.1 µM"],
  ["Cc1csc2c(N3CCC(NC(=O)CCc4ccnc(Br)c4)CC3)ncnc12", "1 to 20 µM"],
  ["CCc1nc(N2CCC(NCCCc3ccncc3)CC2)c2scc(C)c2n1", "> 20 µM"],
  ["Cc1csc2c(N3CCC(NCCc4ccc(F)cc4)CC3)ncnc12", "0.1 to 1 µM"],
  ["Cn1ncc2c(NCc3ccco3)nc(-c3ccccn3)nc21", "> 20 µM"],
  ["NS(=O)(=O)c1ccc(CNc2ncnc3scc(-c4ccccc4)c23)cc1", "< 0.1 µM"],
  ["NS(=O)(=O)c1ccc(CNc2nc(-c3cccnc3)nc3scc(-c4ccccc4)c23)s1", "1 to 20 µM"],
  ["NS(=O)(=O)c1cccc(CNc2nc(-c3ccccn3)nc3scc(-c4ccccc4)c23)c1", "1 to 20 µM"],
  ["Cc1csc2c(N3CCC(NCc4ccccc4)CC3)ncnc12", "0.1 to 1 µM"],
  ["Cc1csc2c(N3CCC(NCCCc4ccncc4)CC3)nc(-c3ccccc3)nc12", "> 20 µM"],
  ["Cn1ncc2c(NCc3ccc(S(N)(=O)=O)cc3)nc(-c3ccccn3)nc21", "< 0.1 µM"],
  ["Cc1csc2c(N3CCC(NCCCc4ccccc4F)CC3)ncnc12", "0.1 to 1 µM"],
  ["Cn1ncc2c(NCc3ccc(S(N)(=O)=O)cc3)cc(N)nc21", "0.1 to 1 µM"],
  ["COc1nc(NCc2ccc(S(N)(=O)=O)cc2)c2c(Br)nn(C)c2n1", "< 0.1 µM"],
  ["CCn1ncc2c(NCc3ccc(S(N)(=O)=O)cc3)ccnc21", "< 0.1 µM"],
  ["Cc1csc2c(N3CCC(NCc4ccncc4)CC3)ncnc12", "1 to 20 µM"],
  ["Cc1csc2c(N3CCC(NCCCc4ccncc4)CC3)nc(-c3ccccn3)nc12", "> 20 µM"],
  ["Fc1ccc(CCCNC2CCN(c3ncnc4ccsc34)CC2)cc1", "1 to 20 µM"],
  ["Cn1ncc2c(NCc3ccc(S(N)(=O)=O)c(Cl)c3)ccnc21", "0.1 to 1 µM"],
  ["CSc1nc(NCc2ccc(S(N)(=O)=O)cc2)c2cnn(C)c2n1", "< 0.1 µM"],
  ["O=C(CCc1ccc(F)cc1)NC1CCN(c2ncnc3c(I)csc23)CC1", "0.1 to 1 µM"],
  ["Cn1ncc2c(NCc3ccc(S(N)(=O)=O)c(F)c3)ccnc21", "< 0.1 µM"],
  ["Cc1cc(CNc2nc(-c3ccccn3)nc3scc(-c4ccccc4)c23)ccc1S(N)(=O)=O", "< 0.1 µM"],
  ["CN(C)c1nc(NCc2ccc(S(N)(=O)=O)cc2)c2cnn(C)c2n1", "1 to 20 µM"],
  ["c1ccc(-c2csc3nc(-c4ccccn4)nc(NCc4cccnc4)c23)cc1", "1 to 20 µM"],
  ["CC(Nc1ncnc2scc(-c3ccccc3)c12)c1ccc(S(N)(=O)=O)cc1 (stereo not drawn)", "1 to 20 µM"],
  ["Cc1ccc(CNc2nc(-c3ccccn3)nc3scc(-c4ccccc4)c23)o1", "1 to 20 µM"],
  ["Cc1csc2c(N3CCC(NC(=O)CCc4ccc(F)cc4)CC3)ncnc12", "> 20 µM"],
  ["Cc1nc(N2CCC(NCCCc3ccc(F)cc3)CC2)c2cnn(C)c2n1", "> 20 µM"]
]}
